System: M14
Test: Cytotoxicity assay (MTS, 72 h)
Details: Homo sapiens, M14, read-out: IC50 Melanoma Cancer M14
Reported Endpoint: IC50

[[record]]
compound = "COc1ccc2c(c1)nc(-c1ccc(OC)c(OC)c1OC)n2-c1nc(SC)nc2c1CCC2 [Compound 19]"
observed_measurement = "> 3000 nM"

[[record]]
compound = "COc1ccc2c(c1)[nH]c(=O)c(=O)n2-c1nc(OC)nc2c1CCC2 [Compound 16]"
observed_measurement = "> 3000 nM"

[[record]]
compound = "COc1ccc2c(c1)[nH]c(=O)c(=O)n2-c1nc(S(C)(=O)=O)nc2c1CCC2 [Compound 15]"
observed_measurement = "> 3000 nM"


###

Assay: Pharmacokinetic evaluation of 12k in mice
Format: in vivo, NSG mice
Conditions: female, NSG, mouse, plasma, po, 10 mg/kg, oral (10 mg/kg), NSG mice; read-out: t1/2 (converted)
Reported Endpoint: half-life (min)

[[record]]
compound = "CNc1nc2c(c(N3CC(=O)Nc4cc(OC)ccc43)n1)CCC2 [Compound 12k]"
reported_endpoint = "half-life"
observed_measurement = 358


###

Assay: Pharmacokinetic evaluation of 12k in mice
Format: in vivo, NSG mice
Conditions: female, mouse, plasma; intravenous (4 mg/kg), NSG mice
Reported Endpoint: Cmax (ng/mL)

[[record]]
molecule = "CNc1nc2c(c(N3CC(=O)Nc4cc(OC)ccc43)n1)CCC2 [Compound 12k]"
reported_endpoint = "Cmax"
observed_measurement = 1250


###

Assay: Pharmacokinetic evaluation of 12k in mice
Format: in vivo, NSG mice
Settings: female, mouse, plasma; oral (10 mg/kg), NSG mice
Reported Endpoint: Tmax (min)

[[record]]
compound = "CNc1nc2c(c(N3CC(=O)Nc4cc(OC)ccc43)n1)CCC2 [Compound 12k]"
reported_endpoint = "Tmax"
units_text = "min"
observed_measurement = 10


###

logP overview
Test: logP
Format: physicochemical
Settings: Table 1; method not described
Reported Endpoint: logP

[[record]]
item_smiles = "CCNc1nc(N2CC(=O)Nc3cc(OC)ccc32)c2ncccc2n1"
reported_endpoint = "logP"
observed_measurement = 1.72

[[record]]
item_smiles = "COc1ccc2c(c1)NC(=O)CN2c1nc(C)nc2c1CCC2"
reported_endpoint = "logP"
observed_measurement = 2.96

[[record]]
item_smiles = "COc1ccc2c(c1)NC(=O)CN2c1nc(Cl)nc(C)c1C"
reported_endpoint = "logP"
observed_measurement = 2.76

[[record]]
item_smiles = "COc1ccc2c(c1)NC(=O)CN2c1nc(Cl)nc2c1CCC2"
reported_endpoint = "logP"
observed_measurement = 2.74

[[record]]
item_smiles = "CCNc1nc(N2CC(=O)Nc3cc(OC)ccc32)c2cccnc2n1"
reported_endpoint = "logP"
observed_measurement = 2.51

[[record]]
item_smiles = "CCNc1nc2c(c(N3CC(=O)Nc4cc(OC)ccc43)n1)CCC2"
reported_endpoint = "logP"
observed_measurement = 2.39

[[record]]
item_smiles = "COc1ccc2c(c1)NC(=O)CN2c1cc(C)nc2cccnc12"
reported_endpoint = "logP"
observed_measurement = 1.96

[[record]]
item_smiles = "COc1ccc2c(c1)NC(=O)CN2c1nc(Cl)nc2c1CCCC2"
reported_endpoint = "logP"
observed_measurement = 3.16

[[record]]
item_smiles = "COc1cc2c(cc1F)N(c1nc(Cl)nc3cccnc13)CC(=O)N2"
reported_endpoint = "logP"
observed_measurement = 2.23

[[record]]
item_smiles = "COc1ccc2c(c1)NC(=O)CN2c1nc(Cl)nc2c1COC2"
reported_endpoint = "logP"
observed_measurement = 1.47

[[record]]
item_smiles = "COc1ccc2c(c1)NC(=O)CN2c1nc(C)nc(C)c1C"
reported_endpoint = "logP"
observed_measurement = 2.97

[[record]]
item_smiles = "COc1ccc2c(c1)NC(=O)CN2c1nc(C)nc2onc(C)c12"
reported_endpoint = "logP"
observed_measurement = 2.46

[[record]]
item_smiles = "COc1ccc2c(c1)NC(=O)CN2c1ncnc2c1CCC2"
reported_endpoint = "logP"
observed_measurement = 2.05

[[record]]
item_smiles = "COc1ccc2c(c1)NC(=O)CN2c1nc(Cl)nc2ccoc12"
reported_endpoint = "logP"
observed_measurement = 1.6


###

Tested on: A375
Experiment: Cytotoxicity assay (MTS, 72 h)
Conditions: Homo sapiens, A-375, read-out: IC50 (nM) Melanoma A375, Table 1
Checkbox rule: IC50 lower than 10 nM = Satisfied; IC50 not lower than 10 nM = Not satisfied.

[[record]]
item_smiles = "COc1ccc2c(c1)NC(=O)CN2c1nc(C)nc2onc(C)c12"
qualitative_label = "Not satisfied"

[[record]]
item_smiles = "COc1ccc2c(c1)NC(=O)CN2c1nc(Cl)nc2ccoc12"
qualitative_label = "Not satisfied"

[[record]]
item_smiles = "COc1ccc2c(c1)NC(=O)CN2c1cc(C)nc2cccnc12"
qualitative_label = "Not satisfied"

[[record]]
item_smiles = "CCNc1nc(N2CC(=O)Nc3cc(OC)ccc32)c2cccnc2n1"
qualitative_label = "Satisfied"

[[record]]
item_smiles = "COc1ccc2c(c1)NC(=O)CN2c1ncnc2c1CCC2"
qualitative_label = "Not satisfied"


###

Below, each entry is listed with its recorded microsomal CLint at 1 μg/mL.
Experiment: in vitro
Conditions: human, liver microsomes
Reported Endpoint: microsomal CLint at 1 μg/mL

[[record]]
compound = "CCNc1nc2c(c(N3CC(=O)Nc4cc(OC)ccc43)n1)CCC2"
reported_endpoint = "microsomal CLint at 1 μg/mL"
observed_measurement = "28.1 µL/min/mg"

[[record]]
compound = "CNc1nc2c(c(N3CC(=O)Nc4cc(OC)ccc43)n1)CCC2 [Compound 12k]"
reported_endpoint = "microsomal CLint at 1 μg/mL"
observed_measurement = "< 2.31 µL/min/mg"

[[record]]
compound = "COc1ccc2c(c1)NC(=O)CN2c1nc(NC2CC2)nc2c1CCC2 [Compound 12j]"
reported_endpoint = "microsomal CLint at 1 μg/mL"
observed_measurement = "8.68 µL/min/mg"


###

Tested on: A375
Test: Cytotoxicity assay (MTS, 72 h);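 further: compounds tested from 0.1 nM up to 3 µM in four replicate wells, with absorbance read at 490 nm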
Details: Homo sapiens, A-375, read-out: IC50 (nM) Melanoma A375, Table 1
Reported Endpoint: IC50

[[record]]
item_smiles = "COc1ccc2c(c1)NC(=O)CN2c1nc(Cl)nc2c1CCCC2"
reported_endpoint = "IC50"
observed_measurement = "> 1000 nM"

[[record]]
item_smiles = "CCNc1nc2c(c(N3CC(=O)Nc4cc(OC)ccc43)n1)CCC2"
reported_endpoint = "IC50"
observed_measurement = "0.7 nM"

[[record]]
item_smiles = "COc1ccc2c(c1)NC(=O)CN2c1nc(Cl)nc(C)c1C"
reported_endpoint = "IC50"
observed_measurement = "> 1000 nM"

[[record]]
item_smiles = "COc1cc2c(cc1F)N(c1nc(Cl)nc3cccnc13)CC(=O)N2"
reported_endpoint = "IC50"
observed_measurement = "> 1000 nM"

[[record]]
item_smiles = "COc1ccc2c(c1)NC(=O)CN2c1nc(C)nc(C)c1C"
reported_endpoint = "IC50"
observed_measurement = "9 nM"

[[record]]
item_smiles = "COc1ccc2c(c1)NC(=O)CN2c1nc(Cl)nc2c1CCC2"
reported_endpoint = "IC50"
observed_measurement = "5.5 nM"

[[record]]
item_smiles = "COc1ccc2c(c1)NC(=O)CN2c1nc(Cl)nc2c1COC2"
reported_endpoint = "IC50"
observed_measurement = "31.8 nM"


###

Experiment: Pharmacokinetic evaluation of 12k in mice
Format: in vivo, NSG mice
Conditions: female, mouse, plasma; oral (10 mg/kg), NSG mice
Reported Endpoint: Cmax

[[record]]
molecule = "CNc1nc2c(c(N3CC(=O)Nc4cc(OC)ccc43)n1)CCC2 [Compound 12k]"
reported_endpoint = "Cmax"
observed_measurement = "78.3 ng/mL"


###

// reported half-life at 1 μg/mL for each item listed
Assay: in vitro
Conditions: mouse, liver microsomes
Reported Endpoint: half-life at 1 μg/mL (min)

[[record]]
molecule = "CNc1nc2c(c(N3CC(=O)Nc4cc(OC)ccc43)n1)CCC2 [Compound 12k]"
limit_operator = ">"
observed_measurement = 300

[[record]]
molecule = "COc1ccc2c(c1)NC(=O)CN2c1nc(NC2CC2)nc2c1CCC2 [Compound 12j]"
limit_operator = "="
observed_measurement = 13.6

[[record]]
molecule = "CCNc1nc2c(c(N3CC(=O)Nc4cc(OC)ccc43)n1)CCC2"
limit_operator = "="
observed_measurement = 6.33


###

Quick reference for half-life at 1 μg/mL among some compounds
Assay: in vitro
Conditions: human, liver microsomes
Reported Endpoint: half-life at 1 μg/mL (h)

[[record]]
compound = "CNc1nc2c(c(N3CC(=O)Nc4cc(OC)ccc43)n1)CCC2 [Compound 12k]"
reported_endpoint = "half-life at 1 μg/mL"
limit_operator = ">"
observed_measurement = 5

[[record]]
compound = "COc1ccc2c(c1)NC(=O)CN2c1nc(NC2CC2)nc2c1CCC2 [Compound 12j]"
reported_endpoint = "half-life at 1 μg/mL"
limit_operator = "="
observed_measurement = 1.34

[[record]]
compound = "CCNc1nc2c(c(N3CC(=O)Nc4cc(OC)ccc43)n1)CCC2"
reported_endpoint = "half-life at 1 μg/mL"
limit_operator = "="
observed_measurement = 0.412


Recorded values, source patent US20230286995A1.
